- Test system: U2OS
- MEASUREMENT_DESCRIPTION: Multiplex assay against U2OS
- Type: toxicity, cell-based
- ASSAY_CONTEXT: human, 24 h, 1 µM, compound concentration 1 uM, replicate 2
QUANTITY: Population Mitochondria Different-Phenotype (%)

COMPOUND	UNIT	MEASURED_NUMBER
C[C@H](NC(=O)CNC(=O)c1cccc(Cl)c1)c1ccccc1	%	4
Cc1cc(NC(=O)NCCN2CCC(O)(Cc3ccccc3)CC2)c2ccccc2n1 [PALOSURAN]	%	7
C=CCN1C[C@H](C(=O)N(CCCN(C)C)C(=O)NCC)C[C@@H]2c3cccc4[nH]cc(c34)C[C@H]21 [CABERGOLINE]	%	4
S=C(NCCCc1c[nH]cn1)NCCCN(Cc1ccc(Cl)c(Cl)c1)c1ccc(Br)cn1	%	5
CCn1c(-c2nc3cc(C(=O)N4CCCC(N)C4)ccc3n2C)cc2ccccc21.Cl (stereo unspecified)	%	13
COc1cc2nc(N3CCN(C(=O)c4ccco4)CC3)nc(N)c2cc1OC.Cl [PRAZOSIN HYDROCHLORIDE]	%	5

---

Known Population Apoptotic (%) of a selection of molecules
- System: U2OS
- MEASUREMENT_DESCRIPTION: Multiplex assay against U2OS
- Type: toxicity, cell-based
- ASSAY_CONTEXT: human, 48 h, 10 µM, compound concentration 10 uM, replicate 1

COMPOUND_SMILES	UNIT	Population Apoptotic (%)
CCc1nn2c(C)cc(C)nc2c1Cc1ccc(-c2nnc(C3CCNCC3)o2)cc1	%	82
COc1cc(C(=O)N2CC[C@@H](O)[C@@H](N)C2)cc2nc(-c3cc4ccccc4n3CC3CC3)n(C)c12.Cl	%	88
Cc1cc(=O)n(C)c2cc(N3C(=O)CC[C@H](NS(=O)(=O)CC(C)C)[C@H]3c3ccc(Cl)cc3)ccc12	%	84
Cc1cc(O)c(-c2ccc([C@@H](C)CN(C)C)cc2)c2c1[nH]c(=O)c1sccc12	%	96

---

- Test system: U2OS
- MEASUREMENT_DESCRIPTION: Multiplex assay against U2OS
- Format: toxicity, cell-based
- ASSAY_CONTEXT: human, 48 h, 1 µM, compound concentration 1 uM, replicate 2
Non-standard residues stand in square brackets, D forms with d. Residues, ends and D or L forms follow the SMILES beside them.
Attribute: Population Mitochondria Different-Phenotype (%)
QUANTITY: Population Mitochondria Different-Phenotype (%)

COMPOUND	UNIT	MEASURED_NUMBER
CCC(=O)OCC(=O)[C@@]1(OC(=O)CC)[C@@H](C)C[C@H]2[C@@H]3CCC4=CC(=O)C=C[C@]4(C)[C@@]3(Cl)[C@@H](O)C[C@@]21C [BECLOMETHASONE DIPROPIONATE]	%	5
CN1CCN(c2ccc(Nc3c4ccccc4nc4ccccc34)cc2)CC1.Cl.Cl.O	%	7
CN1CCN2c3ccccc3Cc3ccccc3C2C1.Cl (centres undefined) [MIANSERIN HYDROCHLORIDE]	%	3
Cc1ccc(OCC(O)C(C)NC(C)C)c2c1CCC2.Cl (centres undefined)	%	3
COc1ccc2c(c1OCc1ccccc1)C[C@@H](C(=O)O)N(C(=O)C(c1ccccc1)c1ccccc1)C2	%	3
CC(C)C[C@H](CO)Nc1nc(S[C@@H](C)c2ccccc2)nc2nc(N)sc12	%	2
CC(C)(O)C(=O)N1CCN(c2ccc(C(F)(F)F)c(C3=C(c4c[nH]c5ccccc45)C(=O)NC3=O)c2)CC1	%	3
O=c1ccc2ccc(OCCCCN3CCN(c4cccc5sccc45)CC3)cc2[nH]1	%	31
COc1cc(OC2CCN(C(C)=O)CC2)ccc1C(=O)N1CCC(N2C(=O)OCc3ccccc32)CC1	%	5
CCc1nn2c(C)cc(C)nc2c1Cc1ccc(-c2nnc(C3CCNCC3)o2)cc1	%	6
COc1c(Nc2ccc(S(C)(=O)=O)nc2C)ncnc1OC1CCN(C(=O)OC(C)C)CC1	%	4
CCn1c(-c2nc3cc(C(=O)N4CCCC(N)C4)ccc3n2C)cc2ccccc21.Cl (centres undefined)	%	9
Nc1nc(-c2ccco2)c2cnn(Cc3ccccc3F)c2n1	%	5
Cc1c(Cc2ccc3ccccc3n2)c2cc(F)ccc2n1CC(=O)O	%	5
Cc1cc(O)c(-c2ccc([C@@H](C)CN(C)C)cc2)c2c1[nH]c(=O)c1sccc12	%	35
O=C(Nc1cc(-c2ccccc2)nn1-c1ccccc1F)c1ccc([N+](=O)[O-])cc1	%	4
OCCCNc1cc(-c2ccnc(Nc3cccc(Cl)c3)n2)ccn1	%	20
COc1cc(C(=O)N2CC[C@@H](O)[C@@H](N)C2)cc2nc(-c3cc4ccccc4n3CC3CC3)n(C)c12.Cl	%	11
O=c1nc2[nH]c3ccccc3nc-2c(=O)[nH]1	%	2
COCCn1c(C)c(C)s/c1=N\C(=O)C1C(C)(C)C1(C)C	%	1
COc1cc2nc(N3CCN(C(=O)c4ccco4)CC3)nc(N)c2cc1OC.Cl [PRAZOSIN HYDROCHLORIDE]	%	7
Cc1sc2c(c1C)C(c1ccc(Cl)cc1)=N[C@H](CC(=O)OC(C)(C)C)c1nnc(C)n1-2	%	7
Cc1cc(NC(=O)NCCN2CCC(O)(Cc3ccccc3)CC2)c2ccccc2n1	%	5
O=C(O)CCC/C=C\CC1C(O)CC(O)C1/C=C/C(O)COc1cccc(Cl)c1 (centres undefined)	%	3
N[C@](CC1c2ccccc2Oc2ccccc21)(C(=O)O)[C@H]1C[C@@H]1C(=O)O	%	3
COCCCN1CCC(NC(=O)c2cc(Cl)c(N)c3c2OCC3)CC1 [PRUCALOPRIDE]	%	6
CCCCC[C@H](O)/C=C/[C@H]1[C@H](O)CC(=O)[C@@H]1CCCCCCC(=O)O	%	5
Cc1cc(-c2ccc3c(c2)CC[C@H]3N2CC3(CCN(C(=O)Cc4cn5cc(C)sc5n4)CC3)C2)ncn1	%	2
COc1cc(Nc2ncc3c(n2)-c2ccc(Cl)cc2C(c2c(F)cccc2OC)=NC3)ccc1C(=O)O	%	6
CC(C)C[C@@H]1NC(=O)[C@@H](C(C)C)NC(=O)[C@@H]2CCCN2C(=O)[C@@H](CC(=O)O)NC(=O)[C@@H](Cc2c[nH]c3ccccc23)NC1=O [BQ-123] (cyclo(L[dW][dD]P[dV]))	%	3
Cn1cc(C(=O)OCC2CCN(CCNS(C)(=O)=O)CC2)c2ccccc21	%	5
Cc1cc(=O)n(C)c2cc(N3C(=O)CC[C@H](NS(=O)(=O)CC(C)C)[C@H]3c3ccc(Cl)cc3)ccc12	%	5
CCCCCCNC(=O)Nc1ccc(S(=O)(=O)Nc2ccc(CCNC[C@H](O)COc3ccc(O)cc3)cc2)cc1	%	5
C=CCN1C[C@H](C(=O)N(CCCN(C)C)C(=O)NCC)C[C@@H]2c3cccc4[nH]cc(c34)C[C@H]21	%	4

---

- Test system: HEK-293T
- MEASUREMENT_DESCRIPTION: Multiplex assay against HEK293T
- Assay type: toxicity, cell-based
- ASSAY_CONTEXT: human, 48 h, 10 µM, compound concentration 10 uM, replicate 2
Non-standard residues stand in square brackets, D forms with d. Residues, ends and D or L forms follow the SMILES beside them.
Below, each of the compounds is paired with its reported Population Fragmented Nuclei (%) value.
QUANTITY: Population Fragmented Nuclei (%)

COMPOUND	ASSAYED_TARGET	QUANTITY	MEASURED_NUMBER
Cc1cc(NC(=O)NCCN2CCC(O)(Cc3ccccc3)CC2)c2ccccc2n1	HEK-293T	Population Fragmented Nuclei (%)	9
O=C(NCCNCC(O)COc1ccc(O)cc1)N1CCOCC1.O=C(NCCNCC(O)COc1ccc(O)cc1)N1CCOCC1.O=C(O)/C=C/C(=O)O (stereo not drawn) [XAMOTEROL FUMARATE]	HEK-293T	Population Fragmented Nuclei (%)	16
COc1c(Nc2ccc(S(C)(=O)=O)nc2C)ncnc1OC1CCN(C(=O)OC(C)C)CC1	HEK-293T	Population Fragmented Nuclei (%)	13
C[C@@H]1CC(=O)Nc2cccc(-c3ccc4c(c3)c(-c3cnn(C)c3)nn4C)c2N1	HEK-293T	Population Fragmented Nuclei (%)	12
Nc1nc(-c2ccco2)c2cnn(Cc3ccccc3F)c2n1	HEK-293T	Population Fragmented Nuclei (%)	13
Cn1cc(C(=O)OCC2CCN(CCNS(C)(=O)=O)CC2)c2ccccc21	HEK-293T	Population Fragmented Nuclei (%)	13
C[C@H](NC(=O)CNC(=O)c1cccc(Cl)c1)c1ccccc1	HEK-293T	Population Fragmented Nuclei (%)	19
CC(C)(O)C(=O)N1CCN(c2ccc(C(F)(F)F)c(C3=C(c4c[nH]c5ccccc45)C(=O)NC3=O)c2)CC1	HEK-293T	Population Fragmented Nuclei (%)	9
COc1cc2nc(N3CCN(C(=O)c4ccco4)CC3)nc(N)c2cc1OC.Cl [PRAZOSIN HYDROCHLORIDE]	HEK-293T	Population Fragmented Nuclei (%)	14
Cc1ccc(OCC(O)C(C)NC(C)C)c2c1CCC2.Cl (stereo not drawn)	HEK-293T	Population Fragmented Nuclei (%)	11
CN1CCN(c2ccc(Nc3c4ccccc4nc4ccccc34)cc2)CC1.Cl.Cl.O	HEK-293T	Population Fragmented Nuclei (%)	52
S=C(NCCCc1c[nH]cn1)NCCCN(Cc1ccc(Cl)c(Cl)c1)c1ccc(Br)cn1	HEK-293T	Population Fragmented Nuclei (%)	21
COCCn1c(C)c(C)s/c1=N\C(=O)C1C(C)(C)C1(C)C	HEK-293T	Population Fragmented Nuclei (%)	13
Cl.Cl.OCCOCCN1CCN(C(c2ccccc2)c2ccc(Cl)cc2)CC1 (stereo not drawn) [HYDROXYZINE HYDROCHLORIDE]	HEK-293T	Population Fragmented Nuclei (%)	15
CC(C)(C)c1ccc(CSc2cnn(C(C)(C)C)c(=O)c2Cl)cc1	HEK-293T	Population Fragmented Nuclei (%)	13
Cc1c(Cc2ccc3ccccc3n2)c2cc(F)ccc2n1CC(=O)O	HEK-293T	Population Fragmented Nuclei (%)	14
Cc1cc(O)c(-c2ccc([C@@H](C)CN(C)C)cc2)c2c1[nH]c(=O)c1sccc12	HEK-293T	Population Fragmented Nuclei (%)	13
CC(C)C[C@@H]1NC(=O)[C@@H](C(C)C)NC(=O)[C@@H]2CCCN2C(=O)[C@@H](CC(=O)O)NC(=O)[C@@H](Cc2c[nH]c3ccccc23)NC1=O [BQ-123] (cyclo(L[dW][dD]P[dV]))	HEK-293T	Population Fragmented Nuclei (%)	11
